Test system: green foxtail
Experiment: Test E preemergence
Assay type: in vivo, Setaria viridis
Conditions: 31 g ai/ha, scale 0 to 100 (0 no effect, 100 complete control)
measured quantity: Foxtail, Green plant response rating
Keep the answer to the number alone.

Quick check: Foxtail, Green plant response rating of FCc1cccc(Oc2ncc(Cl)cn2)c1-n1cc(Cl)cn1 ?
0

Continue with CCOc1cnn(-c2c(C#N)cccc2Oc2ncc(F)cn2)c1
0

Continue with FC(F)(F)COc1cnn(-c2ccccc2Oc2ncc(Cl)cn2)c1
0

Continue with N#Cc1cnn(-c2c(C#N)cccc2Oc2ncc(F)cn2)c1
10

Continue with N#Cc1cnn(-c2c(CF)cccc2Oc2ncc(F)cn2)c1
20

Continue with N#Cc1cccc(Oc2ncc(F)cn2)c1-n1cc(Cl)cn1
20

Continue with N#Cc1cccc(Oc2ncc(F)cn2)c1-n1cc(I)cn1
0

Continue with N#Cc1cccc(Oc2ncc(Br)cn2)c1-n1cc(C(F)(F)F)cn1
60

* * *

Record form. Attribute: Plant response rating, Morningglory. Fill in for each entry.
Tested on: morningglory
Assay: Test A postemergence
Format: in vivo, Ipomoea spp.
Details: 125 g ai/ha, 0 to 100 scale where 0 is no effect and 100 is complete control
Keep the answer to the number alone.

Quick check: Plant response rating, Morningglory of FC(F)c1cnn(-c2ccccc2Oc2ncc(Br)cn2)c1 ?
50

Continue with FC(F)(F)c1ccn(-c2ccccc2Oc2ncc(Br)cn2)n1
0

Continue with FC(F)(F)c1cnc(Oc2ccccc2-n2cc(C(F)(F)F)cn2)nc1
20

Continue with FC(F)(F)c1cccc(Oc2ncc(Cl)cn2)c1-n1cc(Br)cn1
60

* * *

Tested on: barnyardgrass
Experiment: Test A postemergence
Type: in vivo, Echinochloa crus-galli
Conditions: 125 g ai/ha, 0 to 100 scale where 0 is no effect and 100 is complete control
measured quantity: Plant response rating, Barnyardgrass
Keep the answer to the number alone.

Quick check: Plant response rating, Barnyardgrass of CC(C)(C)c1cnn(-c2c(C#N)cccc2Oc2ncc(Cl)cn2)c1 ?
0

Continue with N#Cc1cccc(Oc2ncc(F)cn2)c1-n1cc(Br)cn1
90

Continue with Cc1nn(-c2ccccc2Oc2ncc(Cl)cn2)cc1Cl
0

Continue with Clc1cnc(Oc2ccccc2-n2cnc(Br)n2)nc1
0

Continue with Fc1cnc(Oc2cccc(Cl)c2-n2cc(OCC(F)(F)F)cn2)nc1
60

Continue with N#Cc1cccc(Oc2ncc(I)cn2)c1-n1cc(Cl)cn1
30

Continue with FC(F)(F)c1ccn(-c2ccccc2Sc2ncc(Cl)cn2)n1
0

Continue with Cc1ccc(Oc2ncc(Cl)cn2)c(-n2cc(Br)cn2)c1
0

Continue with Clc1cnc(Oc2ccccc2-n2cc(Cl)cn2)nc1
10

Continue with O=Cc1cccc(Oc2ncc(F)cn2)c1-n1cc(Cl)cn1
0

Continue with Brc1cnc(Oc2ccccc2-n2cc(Br)c(Br)n2)nc1
0

Continue with FC(F)(F)c1cnn(-c2ccccc2Oc2ncc(Cl)cn2)c1
60

Continue with FC(F)(F)c1cnc(Oc2ccccc2-n2cc(Cl)cn2)nc1
40

* * *

Test system: morningglory
Experiment: Test C preemergence
Type: in vivo, Ipomoea coccinea
Settings: 125 g ai/ha, preemergence; scale 0 (no effect) to 100 (complete control)
measured quantity: Morningglory plant response rating
Keep the answer to the number alone.

Quick check: Morningglory plant response rating of N#Cc1cccc(Oc2ncc(Cl)cn2)c1-n1cc(I)cn1 [Compound 204] ?
98

Continue with Fc1cccc(Oc2ncc(Cl)cn2)c1-n1cc(I)cn1 [Compound 179]
90

Continue with FCc1cccc(Oc2ncc(Cl)cn2)c1-n1cc(Br)cn1 [Compound 83]
10

Continue with CCOc1cnn(-c2c(C#N)cccc2Oc2ncc(Cl)cn2)c1 [Compound 92]
98

Continue with N#Cc1cccc(Oc2ncc(Br)cn2)c1-n1cc(I)cn1 [Compound 88]
90

Continue with FCc1cccc(Oc2ncc(F)cn2)c1-n1cc(C(F)(F)F)cn1 [Compound 118]
100

Continue with FCc1cn(-c2c(F)cccc2Oc2ncc(Cl)cn2)nn1 [Compound 154]
85
